assay-info: Inhibition of mitochondrial pyruvate carrier in Wistar rat liver mitochondria assessed as reduction in [1-14C]pyruvate uptake preincubated for 2 mins followed by rotenone and [1-14C]pyruvate addition by scintillation counting method
measured-property: pKi
Units for pKi: none; it is -log10 of a concentration expressed in mol/L.

Lookup: Which pKi is listed for "O=C(O)c1nn(Cc2ccc(Cl)cc2Cl)c2ccccc12" ?
Found: 5.60

----------
assay-info: Cmax in CD1 mouse plasma at 10 mg/kg, ip by LC/MS/MS analysis
Type: ADME, organism-based
Design: route intraperitoneal, dose 10 mg/kg
measured-property: Cmax (ng/g)
Quick reminder: number only, in ng/g, skip the unit.

Lookup: Which Cmax is listed for "CC(C)[C@@H]1CC[C@@H](C)C[C@H]1OC(=O)Cn1c(-c2cccc(C(F)(F)F)c2)[n+](C)c2ccccc21.[I-]" ?
Found: 375

----------
assay-info: Inhibition of mitochondrial complex 1 in human NCI-H460 cells assessed as reduction in cell proliferation incubated for 48 hrs under galactose containing medium by cell titer glow assay
Format: cell-based
protocol-conditions: NCI-H460, 48 h
measured-property: pEC50
Units for pEC50: none; it is -log10 of a concentration expressed in mol/L.

Lookup: Which pEC50 is listed for "Cc1cc(-c2nc(-c3ccc(OC(F)(F)F)cc3)no2)nn1Cc1ccnc(N2CCN(C3CC3)CC2)c1" ?
Found: 8.52

----------
assay-info: Oral bioavailability in ICR mouse at 30 mg/kg
Format: ADME, organism-based
protocol-conditions: in vivo
measured-property: bioavailability (%)
Quick reminder: number only, in %, skip the unit.

Lookup: Which bioavailability is listed for "N=C(NC(=N)N1CCCC1)Nc1ccc(OC(F)(F)F)cc1" ?
Found: 72.9

----------
assay-info: Half life in CD1 mouse plasma at 10 mg/kg, ip by LC/MS/MS analysis
Format: ADME, organism-based
measured-property: half-life
Answer format: number, then unit.

Lookup: Which half-life is listed for "CC(C)[C@@H]1CC[C@@H](C)C[C@H]1OC(=O)Cn1c(-c2cccc(C(F)(F)F)c2)[n+](C)c2ccccc21.[I-]" ?
Found: 15.2 h

----------
assay-info: Half life in ICR/CD-1 mouse S9 fraction incubated for 0 to 240 mins in presence of NADPH regenerating system by HPLC/MS analysis
Format: ADME, subcellular
protocol-conditions: time 0-240 min
measured-property: half-life (h)
Quick reminder: number only, in h, skip the unit.

Lookup: Which half-life is listed for "CCc1n(CC(=O)O[C@@H]2C[C@H](C)CC[C@H]2C(C)C)c2ccccc2[n+]1C.[Cl-]" ?
Found: 3.62
